meta.source: patent EP1247803A2

Target: EGFR (Homo sapiens)
Construct: Add 7 ug A431 cell lysate per well (EGFR source); endogenous in cells; host or cells: A431
Sequence (P00533 25-1210): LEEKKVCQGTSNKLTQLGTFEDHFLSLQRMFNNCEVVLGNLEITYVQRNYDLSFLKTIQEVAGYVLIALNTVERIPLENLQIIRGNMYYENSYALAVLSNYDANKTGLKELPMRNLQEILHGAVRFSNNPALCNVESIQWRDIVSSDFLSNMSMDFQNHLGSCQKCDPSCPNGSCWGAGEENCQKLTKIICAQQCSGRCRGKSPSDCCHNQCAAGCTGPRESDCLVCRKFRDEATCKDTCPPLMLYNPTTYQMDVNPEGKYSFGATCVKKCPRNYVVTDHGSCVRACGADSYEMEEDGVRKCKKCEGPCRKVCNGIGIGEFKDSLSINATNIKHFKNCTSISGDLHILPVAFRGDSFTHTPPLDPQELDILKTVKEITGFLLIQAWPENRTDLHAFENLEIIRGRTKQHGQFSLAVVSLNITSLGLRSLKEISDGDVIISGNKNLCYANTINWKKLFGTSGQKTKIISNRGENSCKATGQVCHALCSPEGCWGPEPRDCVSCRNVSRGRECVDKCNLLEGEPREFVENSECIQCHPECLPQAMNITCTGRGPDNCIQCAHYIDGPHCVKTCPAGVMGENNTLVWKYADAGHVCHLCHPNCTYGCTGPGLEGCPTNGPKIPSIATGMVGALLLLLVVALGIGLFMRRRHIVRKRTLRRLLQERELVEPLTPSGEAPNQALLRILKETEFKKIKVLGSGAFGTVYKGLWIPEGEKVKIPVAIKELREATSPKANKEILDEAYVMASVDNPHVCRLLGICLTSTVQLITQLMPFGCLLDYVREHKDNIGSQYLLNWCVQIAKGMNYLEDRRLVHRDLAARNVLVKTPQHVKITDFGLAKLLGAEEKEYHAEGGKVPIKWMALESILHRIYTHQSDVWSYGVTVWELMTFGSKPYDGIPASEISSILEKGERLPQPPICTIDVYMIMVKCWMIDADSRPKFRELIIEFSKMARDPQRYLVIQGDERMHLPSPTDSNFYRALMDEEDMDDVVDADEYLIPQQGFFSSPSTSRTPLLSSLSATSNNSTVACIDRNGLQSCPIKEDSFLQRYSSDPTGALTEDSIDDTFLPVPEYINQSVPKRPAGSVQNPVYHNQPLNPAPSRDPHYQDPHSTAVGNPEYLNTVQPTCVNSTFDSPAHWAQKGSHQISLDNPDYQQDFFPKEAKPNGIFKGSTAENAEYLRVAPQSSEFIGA
Test: EGFR ELISA assay (in vitro kinase activity, EGFR captured from A431 cell lysate)
Format: biochemical
Set-up: concentration or dose not given beside the values
From the text: To provide a consistent method for measuring the in vitro kinase activity of the EGFR in an Enzyme-linked immunosorbent assay (Elisa). Scope. The following protocol describes the procedures used to analyze protein tyrosine kinase activity on the EGFR in an Elisa. The procedure also describes the protocol for the initial screening of drugs for inhibition or activation of protein tyrosine kinase activity. Reagents and Supplies. • 1. […]
// returns condition not met unless Biochem EGFR %Inhibition is strictly below 20%, in which case condition met

Query string: Threshold test, Biochem EGFR %Inhibition < 20%: `N#Cc1cccc(C=C2C(=O)Nc3ccc(S(=O)(=O)N4CCOCC4)cc32)c1`
Result string: condition met

Query string: Bench note: check whether `O=C1Nc2ccc(I)cc2C1=Cc1cc(Cl)ccc1O` shows Biochem EGFR %Inhibition below 20%
Result string: condition not met

Query string: Is Biochem EGFR %Inhibition strictly under 20% for the entry `Cc1ccc2occ(C=C3C(=O)Nc4ccc(Br)c(C)c43)c(=O)c2c1` ?
Result string: condition not met
